Please go through the items and note down their logP.
Assay text: logP by HPLC on reversed phase columns (EEC directive 79/831 Annex V.A8)
Type: physicochemical
Test conditions: method [a]: LC-MS at pH 2.7, 0.1% formic acid in water / acetonitrile; amines of formula (III-a), Table 2

Qu. Which logP reading was recorded for the compound CC(C)C1Cc2cccc(N)c2C1 (racemic) ?
Ans. 2.25[a]

Qu. Same thing, different compound: `CON=C1c2cccc(N)c2CC1(C)C`
Ans. 2.08[a]

Qu. Try the compound CC(C)C1Cc2c(N)cccc2C1C (centres unmarked)
Ans. 2.34[a]

Qu. Queued: CCC1Cc2c(N)cccc2C1(C)C (centres unmarked)
Ans. 2.47[a]

Qu. Try this compound too: CC1Cc2c(N)cccc2C1C (centres unmarked)
Ans. 1.44[a]

Qu. Then what about the compound `Nc1cccc2c1CC1(CCCC1)C2` ?
Ans. 2.1[a]

Qu. Same read-out for CC1Cc2c(N)cccc2C1(C)C (racemic) ?
Ans. 1.95[a]

Qu. Field entry: Nc1cccc2c1CC(Cc1ccccc1)C2 (centres unmarked)
Ans. 2.54[a]

Qu. Can you check CCC1Cc2cccc(N)c2C1 (centres unmarked) next?
Ans. 1.76[a]

Qu. Proceed to CCC1(CC)Cc2c(N)cccc2C1C (centres unmarked)
Ans. 2.63[a]

Qu. Check Nc1cccc2c1CC(C1CCCC1)C2 (centres unmarked) too.
Ans. 2.94[a]

Qu. Same thing, different compound: CC(C)C1Cc2cccc(N)c2C1C (centres unmarked)
Ans. 2.9[a]

Qu. Now consider CC(C)C1Cc2c(N)cccc2C1(C)C (racemic) .
Ans. 2.8[a]

Qu. Now the compound CC1c2c(N)cccc2C(C)(C)C1C (centres unmarked)
Ans. 2.4[a]

###

For each record, write down the corresponding logP.
Assay text: logP by HPLC on reversed phase columns (EEC directive 79/831 Annex V.A8)
Format: physicochemical
Test conditions: method [a]: LC-MS at pH 2.7, 0.1% formic acid in water / acetonitrile; compounds of formula (I), Table 1

Qu. Returns the measured logP for the input compound. Input: CCC1Cc2c(NC(=O)c3c(C)nn(C)c3Cl)cccc2C1(C)C (racemic) [Example 68]
Ans. 4.32[a]

Qu. Would you mind doing Cn1cc(C(=O)Nc2cccc3c2CC2CCCCC32)c(C(F)F)n1 (stereo not drawn) [Example 24] as well?
Ans. 3.81[a]

Qu. Ok, now Cn1cc(C(=O)Nc2cccc3c2CC2(CCCC2)C3)c(C(F)F)n1 [Example 25]
Ans. 3.74[a]

Qu. Now consider CC1Cc2c(NC(=O)c3cnn(C)c3C(F)(F)F)cccc2C1(C)C (stereo not drawn) [Example 17] .
Ans. 3.73[a]

Qu. How about Cc1nn(C)c(F)c1C(=O)Nc1cccc2c1CC(C)C2(C)C (stereo not drawn) [Example 8] ?
Ans. 3.52[a]

Qu. Also need CC1Cc2c(NC(=O)c3cn(C)nc3[N+](=O)[O-])cccc2C1(C)C (racemic) [Example 76] , thanks.
Ans. 3.67[a]

Qu. Also Cc1nn(C)c(C(F)F)c1C(=O)Nc1cccc2c1CC(C)C2(C)C (racemic) [Example 87] ?
Ans. 3.96[a]

Qu. Proceed to CCC1Cc2c(NC(=O)c3cn(C)nc3C(F)F)cccc2C1(C)C (stereo not drawn) [Example 36]
Ans. 3.96[a]

Qu. Record: CC1Cc2c(NC(=O)c3c(C(F)(F)F)nn(C)c3C(F)F)cccc2C1(C)C (racemic) [Example 81]
Ans. 4.09[a]

###

Assay text: logP by HPLC on reversed phase columns (EEC directive 79/831 Annex V.A8)
Type: physicochemical
Test conditions: method [a]: LC-MS at pH 2.7, 0.1% formic acid in water / acetonitrile; compounds of formula (I), Table 1
Could you please report measured logP for the items listed next?

Qu. // returns reported logP for input Cc1nn(C)c(C)c1C(=O)Nc1cccc2c1CC(C)(C)C2C (stereo not shown) [Example 55]
Ans. 3.09[a]

Qu. Same question for CCC1Cc2cccc(NC(=O)c3cn(C)nc3C(F)F)c2C1 (stereo not shown) please.
Ans. 3.35[a]

Qu. What about CCC1Cc2c(NC(=O)c3c(C(F)(F)F)nn(C)c3C)cccc2C1(C)C (stereo not shown) ?
Ans. 4.3[a]

Qu. Check CC1Cc2c(NC(=O)c3c(C(F)(F)F)nn(C)c3F)cccc2C1(C)C (racemic) too.
Ans. 4.09[a]

Qu. And the next one, CC(C)C1Cc2c(NC(=O)c3cn(C)nc3C(F)F)cccc2C1(C)C (stereo not shown) ?
Ans. 4.27[a]

Qu. Let us now turn to `Cc1nn(C)c(C)c1C(=O)Nc1cccc2c1CC(C)(C)C2`
Ans. 2.77[a]

Qu. Ok, now Cc1nn(C)c(F)c1C(=O)Nc1cccc2c1CC(C)(C)C2C (stereo not shown)
Ans. 3.5[a]

Qu. // same read-out, input: CC1c2cccc(NC(=O)c3cn(C)nc3C(F)(F)F)c2CC1(C)C (stereo not shown) [Example 52]
Ans. 3.72[a]

Qu. Also Cc1c(C(=O)Nc2cccc3c2CC(C)C3(C)C)cnn1C (racemic) , if possible.
Ans. 3[a]

Qu. Cool, now CC1Cc2c(NC(=S)c3cn(C)nc3C(F)F)cccc2C1(C)C (stereo not shown)
Ans. 3.85[a]

Qu. Next compound up: CCC1(CC)Cc2c(NC(=O)c3c(C)nn(C)c3C)cccc2C1C (stereo not shown)
Ans. 3.85[a]

Qu. Continue with CCc1nn(C)cc1C(=O)Nc1cccc2c1CC(C)C2(C)C (racemic)
Ans. 3.27[a]

Qu. Next compound: Cc1nn(C)c(C)c1C(=O)Nc1cccc2c1CC(C)(C)C2C (stereo not shown) [Example 13]
Ans. 3.13[a]

Qu. Try this compound next: CC(C)c1nn(C)cc1C(=O)Nc1cccc2c1CC(C(C)C)C2(C)C (racemic)
Ans. 4.56[a]

Qu. Note, next up: CC1Cc2c(NC(=O)c3c(C(F)(F)F)nn(C)c3Cl)cccc2C1(C)C (stereo not shown)
Ans. 4.26[a]

Qu. And what about the compound CC1Cc2c(NC(=O)c3cnn(C)c3Cl)cccc2C1(C)C (stereo not shown) ?
Ans. 3.44[a]

Qu. What would you report for CC1Cc2c(NC(=O)c3c(C4CC4)nn(C)c3Cl)cccc2C1(C)C (racemic) ?
Ans. 4.46[a]

Qu. Note, next up: CCc1c(C(=O)Nc2cccc3c2CC(C(C)C)C3(C)C)cnn1C (stereo not shown)
Ans. 4.21[a]

Qu. Now the same for CC1c2cccc(NC(=O)c3cn(C)nc3C(F)(F)F)c2CC1(C)C (stereo not shown) [Example 15]
Ans. 3.74[a]

###

Tested on: Sphaerotheca fuliginea
Assay text: In vivo preventive test on Sphaerotheca fuliginea (powdery mildew on cucurbits)
Test conditions: 500 ppm, gherkin plants sprayed 24 h before contamination, graded 12 days after contamination
Metric: Eff. %

Qu. Item under review: Cc1nn(C)c(C)c1C(=O)Nc1cccc2c1CC(C(C)C)C2(C)C (stereo not drawn) . Reported Eff. %?
Ans. 100%

Qu. Param item: CC1c2c(NC(=O)c3cn(C)nc3C(F)F)cccc2C(C)(C)C1C (stereo not drawn)
Ans. 100%

Qu. What would you report for CC1c2c(NC(=O)c3cn(C)nc3C(F)(F)F)cccc2C(C)(C)C1C (stereo not drawn) ?
Ans. 72%

Qu. Try this molecule next: CC1c2cccc(NC(=O)c3cn(C)nc3C(F)F)c2CC1(C)C (stereo not drawn)
Ans. 98%

Qu. Next molecule: CC1c2cccc(NC(=O)c3cn(C)nc3C(F)(F)F)c2CC1(C)C (stereo not drawn) [Example 52]
Ans. 98%

Qu. Another: CC(C)CC1Cc2cccc(NC(=O)c3cn(C)nc3C(F)F)c2C1 (stereo not drawn)
Ans. 70%

Qu. Another molecule: CON=C1c2cccc(NC(=O)c3cn(C)nc3C(F)(F)F)c2CC1(C)C (mixture of isomers)
Ans. 98%

Qu. Please do the same for CC1Cc2c(NC(=S)c3cn(C)nc3C(F)F)cccc2C1(C)C (stereo not drawn) as well.
Ans. 100%

Qu. What do we get for CC(C)C1Cc2c(NC(=O)c3cn(C)nc3C(F)F)cccc2C1(C)C (stereo not drawn) ?
Ans. 100%

###

Test system: Sphaerotheca fuliginea
Assay text: In vivo preventive test on Sphaerotheca fuliginea (powdery mildew on cucurbits)
Test conditions: 500 ppm, gherkin plants sprayed 24 h before contamination, graded 12 days after contamination
I'd be grateful if you could share measured Eff. % for these entries.
Report only the number, with the unit % understood.

Qu. Could you share which Eff. % value was measured for CCC1Cc2c(NC(=O)c3c(C(F)(F)F)nn(C)c3F)cccc2C1(C)C (stereo not drawn) [Example 50] ?
Ans. 98

Qu. Item: [2H]C1(C)Cc2cccc(NC(=O)c3cn(C)nc3C(F)F)c2C1 (stereo not drawn) [Example 26]
Ans. 89

Qu. Consider next the compound CCC1Cc2cccc(NC(=O)c3cn(C)nc3C(F)F)c2C1 (stereo not drawn) [Example 27] in the same way.
Ans. 100

Qu. # iterate: CC1c2cccc(NC(=O)c3cn(C)nc3C(F)(F)F)c2CC1(C)C (stereo not drawn) [Example 15]
Ans. 100

Qu. Please do the same for Cn1cc(C(=O)Nc2cccc3c2CC(C)(C)C3)c(C(F)F)n1 [Example 45] as well.
Ans. 100

Qu. Please answer likewise for CC(C)C1Cc2cccc(NC(=O)c3cn(C)nc3C(F)F)c2C1 (stereo not drawn) [Example 3]
Ans. 100

Qu. Please answer likewise for CC(C)C1Cc2c(NC(=O)c3c(C(F)(F)F)nn(C)c3F)cccc2C1(C)C (racemic) [Example 66]
Ans. 98

Qu. // same read-out, input: CC1Cc2c(NC(=O)c3cn(C)nc3C(F)F)cccc2C1(C)C (stereo not drawn) [Example 6]
Ans. 100

Qu. Also Cc1nn(C)c(F)c1C(=O)Nc1cccc2c1CC(C(C)C)C2(C)C (stereo not drawn) [Example 41] , if possible.
Ans. 100

Qu. Input CC(C)C1Cc2c(NC(=O)c3cn(C)nc3C(F)(F)F)cccc2C1(C)C (stereo not drawn) [Example 40]
Ans. 100

Qu. Can you check CCCc1nn(C)c(F)c1C(=O)Nc1cccc2c1CC(CC)C2(C)C (stereo not drawn) [Example 48] next?
Ans. 94

Qu. Moving on to CCC1(CC)Cc2c(NC(=O)c3c(C)nn(C)c3F)cccc2C1C (racemic) [Example 70]
Ans. 98

Qu. Same for CON=C1c2cccc(NC(=O)c3cn(C)nc3C(F)F)c2CC1(C)C (mixture of isomers) [Example 32]
Ans. 98

Qu. Next compound up: CC1Cc2c(NC(=O)c3cn(C)nc3I)cccc2C1(C)C (racemic) [Example 75]
Ans. 78

Qu. How about CC1c2cccc(NC(=O)c3cn(C)nc3C(F)F)c2CC12CCCC2 (stereo not drawn) [Example 10] ?
Ans. 100
